Test system: UACC-257 melanoma
protocolDetails: NCI tumour cell line growth inhibition, 48 h
Binary call on TGI: Criterion met from 20 µM upward, Criterion not met beneath that.

Illustrative cases are given below, each with its answer.
- CCOC(=O)/C(=C/c1ccccc1)C(=O)c1ccccc1: Criterion not met
- COc1ccc(C2C3=C(COC3=O)OC(C)(C)Oc3cc4c(cc32)OCO4)cc1 (stereo not given): Criterion met
- COC(=O)/C(=N\N)C(C(=O)C(=O)Nc1cccc([N+](=O)[O-])c1)c1nc2ccc(C(=O)c3ccccc3)cc2[nH]c1=O (stereo not given): Criterion met

Request: API: above_or_equal(metric=TGI, cutoff=20 µM) for item CCC(C(=O)c1cccs1)C(O)(C(F)(F)F)C(F)(F)F (stereo not given)
Response: Criterion met

Request: API: above_or_equal(metric=TGI, cutoff=20 µM) for item `CN(C)CCNC(=O)c1cccc2ccc(-c3cccnc3)nc12`
Response: Criterion not met

Request: API: above_or_equal(metric=TGI, cutoff=20 µM) for item `Cc1cc(S(N)(=O)=O)c(S/C(=N\Nc2ccc([N+](=O)[O-])cc2)c2ccc(O)cc2)cc1Cl`
Response: Criterion not met

Request: API: above_or_equal(metric=TGI, cutoff=20 µM) for item `COc1cc(C(C)(C)C)cc(OC)c1C(O)(c1c(OC)cc(C(C)(C)C)cc1OC)c1c(OC)cc(C(C)(C)C)cc1OC`
Response: Criterion not met

----------
Tested on: OVCAR-3 ovarian
protocolDetails: NCI tumour cell line growth inhibition, 48 h
Each entry below lists one item and its recorded TGI value.

Examples with answers:
• COc1cc(-c2nc(-c3nnc(-c4ccc(F)c(Cl)c4)o3)c3ccccn23)cc(OC)c1OC = 8.69 µM
• N.N.N.N.N.N#N.[Cl-].[Os+7] = > 100 µM
• Cc1cc(O)c(C2=NN(c3ccc(S(N)(=O)=O)cc3)C(c3ccccc3O)C2)cc1Cl (stereo unspecified) = 7.62 µM

Given the compound `c1ccc(CN2CCCN3CCN(CCCN(Cc4ccccc4)CC3)CC2)cc1` and test system OVCAR-3 ovarian, the measured TGI is > 100 µM

Given the compound `Nc1cc(S(=O)(=O)O)cc2cc(S(=O)(=O)O)c(N=Nc3ccc(-c4ccc(N=Nc5c(S(=O)(=O)O)cc6cc(S(=O)(=O)O)cc(N)c6c5O)cc4)cc3)c(O)c12` and test system OVCAR-3 ovarian, the measured TGI is > 100 µM

Given the compound FC(F)(F)c1ccc2c(c1)nc(Cc1ccc(Cl)c(Cl)c1)n2CC1CCCN2CCCCC12 (stereo unspecified) and test system OVCAR-3 ovarian, the measured TGI is 82.3 µM

Given the compound `O=[N+]([O-])c1ccc(/C=N\Nc2ccc([N+](=O)[O-])cn2)cc1` and test system OVCAR-3 ovarian, the measured TGI is > 100 µM

Given the compound `COc1cc(/C=C2\N=C(c3ccccc3)N(c3nc4cc(C)c(C)cc4s3)C2=O)cc(OC)c1OC` and test system OVCAR-3 ovarian, the measured TGI is 49.1 µM

Given the compound `Cc1c2cnccc2c(C)c2c1c1cc(C(=O)O)ccc1n2C` and test system OVCAR-3 ovarian, the measured TGI is 5.68 µM

Given the compound `c1cc2[nH]snc2c2cncc12` and test system OVCAR-3 ovarian, the measured TGI is > 100 µM

----------
Test system: CAKI-1 renal
protocolDetails: NCI tumour cell line growth inhibition, 48 h; in the data active means GI50 below about 0.43 µM; inactive means the rest
Parameter call: string, one of active, inactive

Illustrative cases are given below, each with its answer.
* N.N.N.N.N.N#N.[Cl-].[Os+7] | inactive
* CN(C)CCN1C(=O)c2cccc3c(N)ccc(c23)C1=O | inactive
* CC(N)(Cc1c[nH]c2ccccc12)C(=O)O (stereo not given) | inactive
* O=C(CCc1ccco1)NC1CCN(CC2(c3ccc(Cl)cc3)CCC2)CC1 | inactive
* COc1ccc2c(O)c(/C=C3\N=Nc4ncccc43)oc2c1C[C@H]1CCNC[C@H]1F | active

Request: Could you please tell me the result logged for `C=CC(=O)NCCOc1cccc(Nc2cc(NCCCNC(=O)C3CCC3)c(Br)cn2)c1` in this assay?
Response: inactive

Request: Could you please tell me the result logged for COc1ccc(C2=CC(c3ccc(Oc4ccnc5cc(Cl)ccc45)c(OC)c3)c3c(nc(OC)[nH]c3=O)N2)cc1 (stereo not given) in this assay?
Response: inactive

Request: Could you please tell me the result logged for `COc1cc(-c2nc(-c3nnc(-c4ccc(F)c(Cl)c4)o3)c3ccccn23)cc(OC)c1OC` in this assay?
Response: inactive

Request: Could you please tell me the result logged for `Fc1c[c-]c(-c2ccccn2)c(F)c1.[CH3-].[Pt+2].c1ccc([PH+](c2ccccc2)c2ccccn2)cc1` in this assay?
Response: inactive

Request: Could you please tell me the result logged for `COc1cc(-c2cc(-c3nc4cc(Cl)c(Cl)cc4[nH]3)[nH]n2)cc(OC)c1OC` in this assay?
Response: inactive

----------
System: OVCAR-5 ovarian
protocolDetails: NCI tumour cell line growth inhibition, 48 h
attributeMeasured: TGI

Examples with answers:
* C=C(CN(C)C)C(=O)c1ccc(C)cc1C | 31.1 µM
* c1ccc(CCCNc2nnnc3ccccc23)cc1 | > 100 µM

Next item in the queue.
Item: `CN(C)C(=S)/N=c1\ssc(=S)n1-c1ccccc1` | TGI: 29.9 µM

----------
System: UO-31 renal
protocolDetails: NCI tumour cell line growth inhibition, 48 h
Binary call on TGI: condition met from 20 µM upward, condition not met beneath that.

- C=C(C)[C@@H]1CC[C@]2(C(=O)Nc3ccccn3)CC[C@]3(C)[C@H](CC[C@@H]4[C@@]5(C)CCCNC(C)(C)[C@@H]5CC[C@]43C)[C@@H]12: condition not met
- C=C1C(=O)CCC1C(=O)O (stereo unspecified): condition met
- O=C(C[C@@]1(O)C(=O)Nc2c(Cl)ccc(Cl)c21)c1ccc(C2CC2)cc1: condition not met
- CCN1/C(=C/C=C/C=C/c2sc3ccccc3[n+]2CC)Sc2ccccc21: condition not met
- COc1ccc(C2C3=C(COC3=O)OC(C)(C)Oc3cc4c(cc32)OCO4)cc1 (stereo unspecified): condition met

Request: API: above_or_equal(metric=TGI, cutoff=20 µM) for item C=C1C(=O)OC2/C=C(\C)C(=O)CC3OC(C)(C)OC3(C)CC(OC(=O)/C(C)=C/C)C12 (stereo unspecified)
Response: condition met

Request: API: above_or_equal(metric=TGI, cutoff=20 µM) for item `CC(C)(C)CC(C)(C)N(CSc1ccc(Cl)cc1)CSc1ccc(Cl)cc1`
Response: condition not met

Request: API: above_or_equal(metric=TGI, cutoff=20 µM) for item `COc1cc(CNc2nc3cc(N)cc(N)c3nc2-c2ccccc2)cc(OC)c1OC`
Response: condition met

Request: API: above_or_equal(metric=TGI, cutoff=20 µM) for item `COc1ccc(C(=O)Nc2ccc(S(=O)(=O)NCC(=O)O)cc2)cc1`
Response: condition met

Request: API: above_or_equal(metric=TGI, cutoff=20 µM) for item `CNS(=O)(=O)c1ccccc1C(=N)c1ccccc1`
Response: condition met

Request: API: above_or_equal(metric=TGI, cutoff=20 µM) for item `CC(=O)/C=C(/C=N/O)c1ccccc1`
Response: condition met

Request: API: above_or_equal(metric=TGI, cutoff=20 µM) for item `CC(C)(C)OC(=O)N1CC(Cn2cc(C(F)(F)F)c3c(Cl)ncnc32)C1`
Response: condition not met

Request: API: above_or_equal(metric=TGI, cutoff=20 µM) for item `CN(C)C(=S)/N=c1\ssc(=S)n1-c1ccccc1`
Response: condition met

Request: API: above_or_equal(metric=TGI, cutoff=20 µM) for item `O=C(O)c1c([N+](=O)[O-])cc(C(F)(F)F)cc1[N+](=O)[O-]`
Response: condition met

Request: API: above_or_equal(metric=TGI, cutoff=20 µM) for item C=CCC(N[C@@H](CO)c1ccccc1)c1ccccn1 (stereo partly specified)
Response: condition met

Request: API: above_or_equal(metric=TGI, cutoff=20 µM) for item CN/C=C(/c1ccc(OC)cc1)C(O)c1ccc(OC)c(OC)c1 (stereo unspecified)
Response: condition met

----------
System: SNB-75 CNS
protocolDetails: NCI tumour cell line growth inhibition, 48 h; in the data active = GI50 below about 0.43 µM; inactive = the rest
Parameter call: string, one of active, inactive

• N.N.N.N.N.N#N.[Cl-].[Os+7] = inactive
• CCN1CCC2(CC1)NC(=O)c1c(c3ccc(Cl)c(Cl)c3n1C)C2C#N (stereo not given) = inactive
• COc1cc(OC)cc(-c2ccc(-c3ccc(C(=N)N)s3)s2)c1 = inactive
• CSC1=Nc2c(c(C)c(-c3ccccc3)n2CCCCl)C2=NC(=O)CN12 = inactive
• CC(C)(C)CC(C)(C)N(CSc1ccc(Cl)cc1)CSc1ccc(Cl)cc1 = inactive

Request: Could you please tell me the result logged for COc1ccc(C2=CC(c3ccc(Oc4ccnc5cc(Cl)ccc45)c(OC)c3)c3c(nc(OC)[nH]c3=O)N2)cc1 (stereo not given) in this assay?
Response: inactive

Request: Could you please tell me the result logged for `Cc1cc(C(=O)N[C@@H](CCC(=O)O)C(=O)O)sc1CC[C@@H]1CNc2nc(N)[nH]c(=O)c2C1` in this assay?
Response: active

Request: Could you please tell me the result logged for COc1cc(/C=C/C(=O)NC[C@]2(O)CCC3C4CCc5cc(O)ccc5C4CCC32C)ccc1O (stereo not given in full) in this assay?
Response: inactive

Request: Could you please tell me the result logged for `COc1cccc2c1nc1cccc(OC)c1[n+]2[O-]` in this assay?
Response: inactive

Request: Could you please tell me the result logged for `CN(C)CCN1C(=O)c2cccc3c(N)ccc(c23)C1=O` in this assay?
Response: inactive

Values were extracted from PubChem BioAssay (NCI).
